Data origin, for the record: patent US9321756B2

- experimental target: full length recombinant Pim-1 (Homo sapiens (Human), UniProt P11309)
- Sequence (P11309 whole entry): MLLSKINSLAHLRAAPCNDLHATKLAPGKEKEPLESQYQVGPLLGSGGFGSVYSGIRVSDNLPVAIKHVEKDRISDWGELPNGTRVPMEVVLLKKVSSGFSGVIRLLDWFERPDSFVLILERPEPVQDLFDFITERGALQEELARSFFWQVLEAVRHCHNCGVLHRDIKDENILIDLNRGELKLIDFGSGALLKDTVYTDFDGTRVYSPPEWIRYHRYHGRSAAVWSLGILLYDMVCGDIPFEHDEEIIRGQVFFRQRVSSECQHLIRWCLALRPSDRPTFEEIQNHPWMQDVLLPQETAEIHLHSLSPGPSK
- protocol summary: Pim enzyme assay (HTRF, phosphorylation of biotinylated-BAD (S112) peptide), Pim-1
- Format: biochemical
- study conditions: Pim-1 enzyme assay; read-out: Pim_1_IC50
pIC50: −log10 of the molar value.
Kind request: treat 7 as inclusive, so pIC50 at 7 or higher is YES, anything lower is NO.

Answered examples (6):
> print(dat)
                                   molecule  class
1  CC(C)Nc1cncc(-c2c[nH]c3ccc(-c4nc(N)ns4)cc23)n1 [Example 64]    YES
2  CNc1nnc(-c2ccc3[nH]cc(-c4cnc5ccccc5c4)c3c2)s1 [Example 217]     NO
3  NCCCNc1nnc(-c2ccc3[nH]cc(-c4ccccc4F)c3c2)s1 [Example 12]    YES
4  CC(C)Oc1cncc(-c2c[nH]c3ccc(-c4nnc(N)o4)cc23)n1 [Example 76]    YES
5  CNc1nnc(-c2ccc3[nH]cc(-c4cccc(OC)c4)c3c2)s1 [Example 226]     NO
6  NC1CCN(c2nnc(-c3ccc4[nH]cc(-c5ccccc5F)c4c3)s2)CC1 [Example 144]     NO

Decide: is the reported value of pIC50 for Nc1ncc(-c2ccc3[nH]cc(-c4cnc5ccccc5c4)c3c2)s1 [Example 20] equal to or greater than 7?
NO

Decide: is the reported value of pIC50 for Nc1nnc(-c2ccc3[nH]cc(-c4cc(C(F)(F)F)ncn4)c3c2)o1 [Example 95] equal to or greater than 7?
NO

Decide: is the reported value of pIC50 for Fc1cccc(Nc2nnc(-c3ccc4[nH]cc(-c5nccc(C6CC6)n5)c4c3)o2)c1 [Example 269] equal to or greater than 7?
NO

Decide: is the reported value of pIC50 for CC(C)Oc1cccc(-c2c[nH]c3ccc(-c4noc(N)n4)cc23)n1 [Example 69] equal to or greater than 7?
NO

Decide: is the reported value of pIC50 for Nc1nnc(-c2ccc3[nH]cc(-c4cncc(C(=O)N5CCOCC5)c4)c3c2)o1 [Example 82] equal to or greater than 7?
NO
